Target: T1, human tenascin-C rCd4-His-FBG (rat; human, UniProt P05540 207-392, limits assumed)
T1 construct: domain: domains 3 and 4; C-terminal FBG fusion; biotinylated in the ELISA and HTRF screens; also called Hu TNC; human TNC rCd4-His-FBG; not shown: 6His tag
T1 sequence (chain (part 1 of 2)): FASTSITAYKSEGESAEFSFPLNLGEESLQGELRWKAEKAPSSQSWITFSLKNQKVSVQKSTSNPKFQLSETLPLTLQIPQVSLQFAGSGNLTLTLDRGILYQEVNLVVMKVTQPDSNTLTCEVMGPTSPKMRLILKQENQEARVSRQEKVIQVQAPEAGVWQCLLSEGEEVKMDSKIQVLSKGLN
T1 sequence (chain (part 2 of 2)): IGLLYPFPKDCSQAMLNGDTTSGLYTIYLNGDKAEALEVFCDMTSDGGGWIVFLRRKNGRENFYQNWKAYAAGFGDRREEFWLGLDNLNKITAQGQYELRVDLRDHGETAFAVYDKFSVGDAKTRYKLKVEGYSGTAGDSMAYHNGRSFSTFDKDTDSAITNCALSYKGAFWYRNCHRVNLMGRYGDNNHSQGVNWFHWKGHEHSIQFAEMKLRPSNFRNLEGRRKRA
Experiment: HTRF competition; competitor d2-labelled B12 IgG
observable: % inhibition of FRET signal

binder	observable	measValue
160_01_F1 scFv (scFv, V domains shown, not shown: small tags and cut ends, E. coli supernatant scFv) VH: EVRLVQSGAEVKKPGASVKVSCKVSGYTLTELSMHWVRQAPGKGLEWMGGFDPEDGETIYAQKFQGRVTMTEDTSTDTAYMELSSLRSEDTAVYYCATAQSPWSGMTYWGQGTLVTVSS VL: DIQMTQSPASLPTSVGDRVTITCRASQYIQGFLNWYQQKPGKAPRLLIYAASTLQDGVPSRFSGSGYGTDFTLTISSLQPEDFATYYCQQSYSTPWTFGQGTKVEIK	% inhibition of FRET signal	≥ 90%

Shift focus to the following entry.
Ask: // lookup % inhibition of FRET signal for 162_02_C2 scFv (scFv, V domains shown, not shown: small tags and cut ends, E. coli supernatant scFv) VH: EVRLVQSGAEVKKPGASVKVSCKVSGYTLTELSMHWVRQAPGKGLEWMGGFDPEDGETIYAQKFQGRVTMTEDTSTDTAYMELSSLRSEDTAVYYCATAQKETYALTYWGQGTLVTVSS VL: DIQMTQSPASLPTSVGDRVTITCRASQYIQGFLNWYQQKPGKAPRLLIYAASTLQDGVPSRFSGSGYGTDFTLTISSLQPEDFATYYCMHHYRAPWTFGQGTKVEIK
Result: ≥ 83%
